Please provide measured TGI for the entries that follow.
# Tested on: HOP-62 NSCLC
# assay-overview: NCI tumour cell line growth inhibition, 48 h
Write down the numeric answer in µM and omit the unit.

Q: API: value(readout= TGI, system= HOP-62 NSCLC, query= COCC1C(=O)c2cc3c(cc2C12C=CC1(C=C2)OCCO1)OCO3 (configuration not stated) )
A: 36.2

Q: Entry to check: CC1(C)CC[C@]2(C(=O)n3ccnc3)CC[C@]3(C)[C@H](C(=O)C=C4[C@@]5(C)C=C(C#N)C(=O)C(C)(C)[C@@H]5CC[C@]43C)[C@@H]2C1
A: 0.0402

Q: Ok, now Oc1ccc2ccccc2c1-c1c(Nc2ccccc2)ccc2ccccc12
A: 30.1

###

# Test system: SNB-75 CNS
# assay-overview: NCI tumour cell line growth inhibition, 48 h
assay-readout: TGI

Q: Bench note: what TGI did CSC(=S)N/N=C/c1ccccc1 show?
A: > 100 µM

Q: Cool, now Cc1ccc(C2(C)NC(=S)N(NC(N)=S)C2=S)cc1 (stereo unspecified)
A: > 100 µM

Q: One more compound: CC1(C)CC(=O)C(C(c2cccc(O)c2O)C2C(=O)CC(C)(C)CC2=O)C(=O)C1
A: > 100 µM

Q: Param item: O=C(Cn1c(C(=O)/C=C/c2ccco2)nc2ccccc21)c1ccc(Cl)cc1
A: > 100 µM

Q: Consider next the compound Cc1cc(=O)oc2c(CNC(C)C(=O)O)c(O)ccc12 (stereo unspecified) in the same way.
A: > 100 µM

Q: Input CCOc1ccc(C2=C(Cl)c3cc(OC)c(OC)cc3C2Cl)cc1 (stereo unspecified)
A: > 100 µM

Q: Continue with CC1=C2C(=O)C3[C@@H](CCC4=CC(=O)CC[C@@]43C)C2CC[C@]12O[C@@H]1C[C@H](C)CN[C@H]1[C@H]2C (stereo partly specified)
A: > 100 µM

Q: Check O=c1[nH]c(=O)n(C2CC(O)C(COP(=O)(O)OC3CC(n4cc(F)c(=O)[nH]c4=O)OC3COP(=O)(O)OC3CC(n4cc(F)c(=O)[nH]c4=O)OC3COP(=O)(O)OC3CC(n4cc(F)c(=O)[nH]c4=O)OC3COP(=O)(O)OC3CC(n4cc(F)c(=O)[nH]c4=O)OC3COP(=O)(O)OC3CC(n4cc(F)c(=O)[nH]c4=O)OC3COP(=O)(O)OC3CC(n4cc(F)c(=O)[nH]c4=O)OC3COP(=O)(O)OC3CC(n4cc(F)c(=O)[nH]c4=O)OC3COP(=O)(O)OC3CC(n4cc(F)c(=O)[nH]c4=O)OC3COP(=O)(O)OC3CC(n4cc(F)c(=O)[nH]c4=O)OC3CO)O2)cc1F (stereo unspecified) too.
A: > 50 µM

Q: Also need O=C(CC1(O)C(=O)Nc2c(Cl)cccc21)c1ccccc1 (stereo unspecified) , thanks.
A: > 100 µM

Q: Similarly, NC(=O)NC(CC(=O)O)C(=O)O (stereo unspecified) ?
A: > 100 µM

Q: Try the compound CCOC(=O)c1c[nH]c2c(OCc3ccccc3)c3ccccc3c(O)c2c1=O
A: > 54.4 µM

Q: Try COc1ccc(C(=O)/C(=N/Nc2ccccc2)c2ccc(OC)cc2)cc1 next.
A: > 100 µM

Q: Also Cc1ccc(S(=O)(=O)c2c(N)c3nccn3c3nc4ccccc4nc23)cc1 , if possible.
A: > 100 µM

Q: Quick one: O=C(Nc1ccc(Cl)c(Cl)c1)C(=O)C(C1OC(=O)c2ccccc21)[N+](=O)[O-] (stereo unspecified)
A: > 100 µM

Q: Another: COC(=O)[C@@]12CC[C@]1(C(=O)OC)C1C(C)=CC(=O)O[C@@]12C (stereo partly specified)
A: > 100 µM

Q: What about this compound? Cc1ccc(Cl)cc1Nc1nc(C(F)(F)F)ccc1C(=O)N/N=C/c1c(Cl)cccc1Cl
A: > 24.2 µM

Q: Another compound to check: CNc1nnnn1C1OC(CO)C(O)C1O (stereo unspecified)
A: > 100 µM

Q: And what about the compound CN(C)C(=S)N/N=C\C(=N/NC(=S)N(C)C)c1ccccc1 ?
A: > 53.7 µM

Q: Now give it for O=C(N/N=C/c1coc2ccc(Cl)cc2c1=O)c1ccncc1 too.
A: > 100 µM

Q: Please answer likewise for C[As](C)Sc1ccnc(S[As](C)C)n1
A: > 100 µM

Q: Same again, this time with O=C1CSC(=S)N1c1ccc(F)cc1F
A: > 100 µM
